Provide the reported growth of each item.
# Tested on: TK-10 renal
# assay: NCI-60 one-dose screen, 48 h (100 = growth as untreated, 0 = no growth, -100 = all killed)
# details: 10 µM unless noted
This is part of a sample that, as a whole, favours compounds with a hit. Of some 83,000 tested, about 20% had one in any assay.
Lab book: enter the figure in %, no units written.

Entry CCCSc1nc(Nc2ccc(S(N)(=O)=O)cc2)c(C#N)c(-c2ccc(Cl)cc2)n1 has what growth?
-16.4

Entry COCOc1ccc2c(=O)c(C)c(C(=O)N[C@@H](Cc3ccccc3)C(O)C(=O)NCCc3ccc(OC)cc3)oc2c1 (some centres undefined) has what growth?
116

Entry COc1cc(C2CC(c3cc(OC)c(OC)c(OC)c3)=NN2C(C)=O)ccc1OCc1ccc(F)cc1 (centres undefined) has what growth?
50.5

Entry CC12CC[C@@H]3[C@]4(C)COC(c5cn[nH]c5-c5cccc(Br)c5)O[C@@H]4CC[C@@]3(C)[C@@H]1CC(C1=CCOC1=O)O2 (some centres undefined) has what growth?
58.6

Entry COc1cc(OC)cc(C(=O)Nc2cccc(-c3cn(-c4ccc(S(N)(=O)=O)cc4)nn3)c2)c1 has what growth?
94.8

Entry O=C(/C=C/c1ccc(O)c(O)c1)NC1CCOC1O (centres undefined) has what growth?
109

Entry C=CC(=O)Nc1ccc(C)c(Oc2ccc(Cl)cc2)c1 has what growth?
74

Entry CN(C)c1nc(NCCNS(=O)(=O)c2ccc(C(=O)/C=C/c3ccc(Cl)cc3)cc2)nc(Nc2ccc(F)cc2)n1 has what growth?
-16.9

Entry Cc1ccc(-c2nc(C#N)c(S(=O)(=O)N3CCN(S(=O)(=O)c4ccccc4)CC3)o2)cc1 has what growth?
81.2

###

# Test system: UACC-257 melanoma
# assay: NCI-60 one-dose screen, 48 h
# details: 10 µM unless noted
Compounds without any hit were thinned out: in the full panel of roughly 83,000, 20% have a hit. Activity calls are given as the source filed them. The calls were made as follows: active = growth percent below 10; inactive = the rest.
API: response.call in Yes (active), No (inactive)

Test call, this compound: COc1ccc2[nH]cc(-c3nnc(N)nc3-c3c[nH]c4ncc(Br)cc34)c2c1
No

Test call, this compound: N#Cc1c(-c2ccc(Br)cc2)nc2n[nH]c(-c3ccc(Br)cc3)c2c1-c1ccc(F)cc1
No

Test call, this compound: Cc1ccc(-n2c(-c3cc4ccccc4nc3Cl)noc2=O)cc1
No

Test call, this compound: CCOC(=O)C1=C(N)N(c2ccccc2)C2=C(C(=O)CC(C)(C)C2)C1c1ccc(Cl)cc1Cl (stereo not drawn)
No

Test call, this compound: O=C(COc1ccc(NC(=O)Nc2ccc(Cl)c(Cl)c2)cc1)N=Nc1c(O)[nH]c2ccc(Br)cc12
Yes

Test call, this compound: COc1ccc2[nH]c(=O)c(CSc3nccc(-c4ccc(OC)c(OC)c4)n3)cc2c1
No

Test call, this compound: Clc1cccc(-c2ccc(OCCCN3CCN(c4ccncc4)CC3)cc2)c1
No

Test call, this compound: O=C(N=Nc1c(O)[nH]c2ccc(Cl)cc12)c1ccc2nc(-c3ccccc3)[nH]c2c1
No

Test call, this compound: O=C(CCN1C(=O)/C(=C/c2ccc(F)cc2)SC1=S)N1CCOCC1
No

Test call, this compound: COCOc1ccc2c(=O)c(C)c(C(=O)N[C@@H](Cc3ccccc3)C(O)C(=O)NCCc3ccc(OC)cc3)oc2c1 (stereo partly drawn)
No

Test call, this compound: O=C1CC(Sc2n[nH]c(-c3ccncc3)n2)C(=O)N1c1ccc(Br)cc1 (stereo not drawn)
No

Test call, this compound: COc1ccc(C2CC(c3ccc(S(=O)(=O)NCCNc4nc(Nc5ccc(F)cc5)nc(N(C)C)n4)cc3)=Nc3c(N)nc(N)nc3N2)cc1 (stereo not drawn)
No

Test call, this compound: Cn1cc(NC(=O)c2cc(NC(=O)c3ccc(C#Cc4ccccc4)cc3)cn2C)cc1C(=O)NCCCN1CCOCC1
Yes

Test call, this compound: O=c1c2ccccc2nc(-c2ccccc2)n1/N=C/c1ccc2ccccc2c1
No

Test call, this compound: NS(=O)(=O)c1ccc(-n2cc(-c3cccc(NC(=O)c4cc(N5CCOCC5)cc(C(F)(F)F)c4)c3)nn2)cc1
No

Test call, this compound: NS(=O)(=O)c1ccc(NNC(=O)CCC(=O)c2ccccc2)cc1
No

Test call, this compound: O=C1NC(=O)/C(=C/c2ccccc2OCc2cc3ccccc3nc2Cl)S1
No

Test call, this compound: CSc1ccccc1NC(=O)c1ccc2nn(/C(C#N)=C/c3ccccn3)nc2c1
Yes

Test call, this compound: Nc1cc2ccccc2c(=O)n1NC(=O)c1ccc(I)cc1
No

Test call, this compound: CCCCCCCCc1ccc(S(=O)(=O)Nc2ccc(CC)cc2C(=O)O)cc1
No

Test call, this compound: N#Cc1c(NCc2ccccc2)n[nH]c1Nc1ccccc1
No

Test call, this compound: COc1cc(-c2nc3cc(Cl)c(Cl)cc3[nH]2)ccc1OCc1nnc(-c2cccs2)o1
No

Test call, this compound: O=C(/C=C/c1cccc(OCc2ccc(F)cc2)c1)c1nc2ccccc2[nH]1
No

Test call, this compound: Nc1nc(C(F)(F)F)cs1
No

Test call, this compound: CC1CCCCN1CCCNC(=O)N/C(N)=N/c1nc2ccccc2s1 (stereo not drawn)
Yes

Test call, this compound: COc1ccc(NC(=O)Cn2c(/C=C/c3cccc([N+](=O)[O-])c3)nc3ccccc3c2=O)cc1
No

Test call, this compound: CC1=C(C(=O)OC(C)C)C(c2cccc(O)c2)NC(=S)N1 (stereo not drawn)
No

Test call, this compound: COc1ccccc1C(=O)NN1C(=O)/C(=C/C2=Cc3ccccc3OC2)SC1=S
No

Test call, this compound: CNS(=O)(=O)c1ccc(Nc2ccc(C(F)(F)F)cc2)c(-c2cn(C)cn2)c1
No

Test call, this compound: Cc1cc(=O)oc2cc(OCCCOc3ccc(/C=C/C(=O)Nc4ccccc4N)cc3)ccc12
No

Test call, this compound: CNC(=O)c1cccc(NC(=O)c2ccc3c(c2)nnn3/C(C#N)=C/c2ccccn2)c1
Yes

Test call, this compound: CC(=O)OC[C@@]1(C)C2CC[C@]3(C)C(CC=C4C5CC(C)(C)CC[C@]5(C(=O)Nc5ccc(C)cc5)CC[C@]43C)[C@@]2(C)C[C@@H](OC(C)=O)[C@@H]1OC(C)=O (stereo partly drawn)
No

Test call, this compound: CN(C)c1ccnc(CNCCSC2(c3ccc(C(F)(F)F)cc3)c3ccccc3C=Cc3ccccc32)c1
Yes

Test call, this compound: CCC(C)(C)c1ccc(OCCCCN2CCN(c3ccncc3)CC2)cc1
No

Test call, this compound: O=c1[nH]c(=O)c2c(-c3cc4ccccc4oc3=O)ccnc2[nH]1
No

Test call, this compound: CN(C)c1nc(NCCNS(=O)(=O)c2ccc(C3=Nc4c(N)nc(N)nc4NC(c4ccc(C(F)(F)F)cc4)C3)cc2)nc(Nc2ccc(F)cc2)n1 (stereo not drawn)
No

Test call, this compound: O=C(N=Nc1c(O)[nH]c2ccc([N+](=O)[O-])cc12)c1ccc2nc(-c3ccccc3)[nH]c2c1
No

Test call, this compound: O=C(c1ccccc1)c1ccc2nc(-c3ccc(F)cc3)[nH]c2c1
No

###

# System: SK-MEL-28 melanoma
# assay: NCI-60 one-dose screen, 48 h (100 = growth as untreated, 0 = no growth, -100 = all killed)
# details: 10 µM unless noted
About 83,000 compounds went through this panel and 20% of them were active in at least one assay; those are over-represented in the sample as a whole.
outcome-measure: growth (%)
Lab book: enter the figure in %, no units written.

Entry CNS(=O)(=O)c1ccc(Nc2ccc(C(F)(F)F)cc2)c(-c2cn(C)cn2)c1 has what growth?
74.8

Entry CCOC(=O)C1=C(N)N(c2ccccc2)C2=C(C(=O)CC(C)(C)C2)C1c1ccccc1Cl (centres undefined) has what growth?
81.4

Entry CC1(C)CC[C@]2(C(=O)O)CC[C@]3(C)C(=CCC4[C@@]5(C)C[C@@H](O)[C@@H]6OC(c7ccc(F)cc7)OC[C@@]6(C)C5CC[C@]43C)C2C1 (some centres undefined) has what growth?
53.9

Entry COc1cc(OC)c2c3nc4cc(C)c(C)cc4nc3n(CCN(C)C)c2c1 has what growth?
66.5

###

# Tested on: HCT-15 colon
# assay: NCI-60 one-dose screen, 48 h
# details: 10 µM unless noted
The panel holds about 83,000 compounds, 20% with a hit somewhere; the sample as a whole holds those more often. Activity calls are given as the source filed them. The calls were made as follows: active = growth percent below 10; inactive = the rest.
API: response.call in t (active), f (inactive)

Test call, this compound: O=c1[nH]c2ccc(Cl)cc2cc1CSc1nccc(-c2ccc(Cl)cc2)n1
f

Test call, this compound: COc1ccc(/C=N/NC(=O)Cn2nc(Cc3ccc(OC)cc3)c3onc(C)c3c2=O)cc1
f

Test call, this compound: O=c1[nH]n(C(=S)N/N=C/c2ccccc2Cl)c(=O)c2ccccc12
t

Test call, this compound: Cc1ccc(S(=O)(=O)c2nc(S(=O)(=O)c3ccc(C)cc3)c(N3CCN(C)CC3)s2)cc1
f

Test call, this compound: COc1cc2c(c(OC)c1OC)C(=O)CC(c1cccc(NC(=O)c3cccc([N+](=O)[O-])c3)c1)O2 (stereo not given)
f
